molecular target: mUSP18 (Mus musculus, UniProt Q9WTV6); construct: (46-368); His-tag (N); made in house; test: High-throughput screening, ISG15ct-RhoMP, single dose 1.25 µM; type: biochemical, murine; details: mUSP18 %inhibition; carboxylic acid (CA) with coupling reagents DIC/HOBT; read-out: %inh CA + DIC/HOBT
Sequence (Q9WTV6 46-368): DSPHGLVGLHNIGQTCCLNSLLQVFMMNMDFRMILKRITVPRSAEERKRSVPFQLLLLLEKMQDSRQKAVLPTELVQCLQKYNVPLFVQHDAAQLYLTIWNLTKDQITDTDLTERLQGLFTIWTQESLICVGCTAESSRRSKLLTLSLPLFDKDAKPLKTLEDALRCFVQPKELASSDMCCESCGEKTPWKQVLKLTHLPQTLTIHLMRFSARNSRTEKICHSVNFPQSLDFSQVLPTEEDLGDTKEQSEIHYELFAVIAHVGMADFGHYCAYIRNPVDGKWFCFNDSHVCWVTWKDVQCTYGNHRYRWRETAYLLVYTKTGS

{"Compound": "O=C(O)c1c(-c2ccccc2)noc1C(F)F [CA177]", "inhibition at 1.25 µM (%)": 4.56}
{"Compound": "O=C(O)c1csc(-c2cnccn2)n1 [CA142]", "inhibition at 1.25 µM (%)": 6.39}
{"Compound": "COc1ccc(C(=O)O)cc1S(=O)(=O)NCCCN1CCOCC1 [CA326]", "inhibition at 1.25 µM (%)": -1.62}
{"Compound": "Cc1oc(Cn2cc(Br)cn2)cc1C(=O)O [CA156]", "inhibition at 1.25 µM (%)": 12.3}
{"Compound": "Cc1noc(C)c1COc1ccc(CC(=O)O)cc1 [CA191]", "inhibition at 1.25 µM (%)": 1.25}
{"Compound": "O=C(O)C1CN(C(=O)OCc2ccccc2)CCO1 (centres unmarked) [CA300]", "inhibition at 1.25 µM (%)": 0.0181}
{"Compound": "Cn1ncc(C(=O)O)c1-n1cccc1 [CA117]", "inhibition at 1.25 µM (%)": 10}
{"Compound": "O=C(O)c1cc(Cl)nc(N2CCCC2)c1 [CA244]", "inhibition at 1.25 µM (%)": 3.68}
{"Compound": "O=C(O)CC1(n2cnnn2)CCOCC1 [CA310]", "inhibition at 1.25 µM (%)": -2.42}
{"Compound": "CN(C)c1ccc(C(=O)O)cc1 [CA062]", "inhibition at 1.25 µM (%)": 33.7}
{"Compound": "O=C(O)CCN1C(=O)C=CC1=O [CA011]", "inhibition at 1.25 µM (%)": -2.16}
{"Compound": "O=C(O)c1cnc(-c2ccco2)s1 [CA188]", "inhibition at 1.25 µM (%)": -0.34}
{"Compound": "CN(C(=O)c1cccs1)c1ccccc1C(=O)O [CA100]", "inhibition at 1.25 µM (%)": 10.5}
{"Compound": "Cn1nccc1[1C@@H]1OCCC[1C@H]1C(=O)O [CA164]", "inhibition at 1.25 µM (%)": -2.41}
{"Compound": "CN(Cc1ccccc1)C(=O)N1CCC(C(=O)O)CC1 [CA333]", "inhibition at 1.25 µM (%)": -0.9}
{"Compound": "O=C(O)c1ccccc1CCc1ccccc1 [CA026]", "inhibition at 1.25 µM (%)": -14.8}
{"Compound": "O=C(O)C1CC2C=CC1O2 (centres unmarked) [CA358]", "inhibition at 1.25 µM (%)": -4.55}
{"Compound": "O=C(O)c1cccc(Cn2cncn2)c1 [CA361]", "inhibition at 1.25 µM (%)": 0.1}
{"Compound": "Cc1noc(-c2ccc(C(=O)O)cc2)n1 [CA328]", "inhibition at 1.25 µM (%)": 6.75}
{"Compound": "COCC(=O)O [CA080]", "inhibition at 1.25 µM (%)": -15.7}
{"Compound": "Cn1nc(CC(=O)O)cc1C1CC1 [CA325]", "inhibition at 1.25 µM (%)": 0.73}
{"Compound": "O=C(O)CC1CCN(c2ccc(C(F)(F)F)cn2)CC1 [CA374]", "inhibition at 1.25 µM (%)": 1.18}
{"Compound": "O=C(O)Cc1ccc(S(=O)(=O)N2CCOCC2)s1 [CA149]", "inhibition at 1.25 µM (%)": 8.05}
{"Compound": "Cc1nn(C2CCOCC2)c(C)c1C(=O)O [CA219]", "inhibition at 1.25 µM (%)": -0.2}
{"Compound": "O=C(O)c1ccc(C#Cc2ccccc2)cc1 [CA401]", "inhibition at 1.25 µM (%)": -4.27}
{"Compound": "O=C(O)c1occc1COc1ccccc1 [CA195]", "inhibition at 1.25 µM (%)": 6.35}

###

biological target: mUSP18 (Mus musculus, UniProt Q9WTV6); construct: (46-368); His-tag (N); made in house; assay: High-throughput screening, ISG15ct-RhoMP, single dose 1.25 µM; assay type: biochemical, murine; details: mUSP18 %inhibition; carboxylic acid (CA) building block alone; read-out: %inh CA only

{"Compound": "Cc1cc(C(=O)O)c(C)n1C1CC1", "inhibition at 1.25 µM, %": 7.06}
{"Compound": "O=C(O)c1cccc(S(=O)(=O)NC2CC2)c1", "inhibition at 1.25 µM, %": 5.82}
{"Compound": "O=C(O)c1ncoc1-c1cccs1", "inhibition at 1.25 µM, %": 14.4}
{"Compound": "CC(=O)CCCC(=O)O", "inhibition at 1.25 µM, %": -3.03}
{"Compound": "CNS(=O)(=O)c1ccc(-c2ccccc2OC(F)(F)F)c(C(=O)O)c1", "inhibition at 1.25 µM, %": -0.67}
{"Compound": "Cc1ccc(S(=O)(=O)NCCc2ccc(F)cc2)cc1C(=O)O", "inhibition at 1.25 µM, %": 11.3}
{"Compound": "O=C(O)c1occc1CN1CCOCC1", "inhibition at 1.25 µM, %": 1.55}
{"Compound": "O=C(O)c1ccc(-c2ccccn2)nc1", "inhibition at 1.25 µM, %": 4.64}
{"Compound": "Cc1cc(C(=O)O)c(C2CC2)s1", "inhibition at 1.25 µM, %": 1.19}
{"Compound": "O=C(O)c1ccc(Cn2ccnn2)o1", "inhibition at 1.25 µM, %": 4.39}
{"Compound": "CC1CCCC(N2CC(C(=O)O)CC2=O)C1C (stereo not drawn)", "inhibition at 1.25 µM, %": 7.37}
{"Compound": "COc1cc(C(=O)O)ccc1OCc1c(C)noc1C", "inhibition at 1.25 µM, %": 5.62}

###

target: USP32 (Homo sapiens)
Sequence (Q8NFA0 whole entry): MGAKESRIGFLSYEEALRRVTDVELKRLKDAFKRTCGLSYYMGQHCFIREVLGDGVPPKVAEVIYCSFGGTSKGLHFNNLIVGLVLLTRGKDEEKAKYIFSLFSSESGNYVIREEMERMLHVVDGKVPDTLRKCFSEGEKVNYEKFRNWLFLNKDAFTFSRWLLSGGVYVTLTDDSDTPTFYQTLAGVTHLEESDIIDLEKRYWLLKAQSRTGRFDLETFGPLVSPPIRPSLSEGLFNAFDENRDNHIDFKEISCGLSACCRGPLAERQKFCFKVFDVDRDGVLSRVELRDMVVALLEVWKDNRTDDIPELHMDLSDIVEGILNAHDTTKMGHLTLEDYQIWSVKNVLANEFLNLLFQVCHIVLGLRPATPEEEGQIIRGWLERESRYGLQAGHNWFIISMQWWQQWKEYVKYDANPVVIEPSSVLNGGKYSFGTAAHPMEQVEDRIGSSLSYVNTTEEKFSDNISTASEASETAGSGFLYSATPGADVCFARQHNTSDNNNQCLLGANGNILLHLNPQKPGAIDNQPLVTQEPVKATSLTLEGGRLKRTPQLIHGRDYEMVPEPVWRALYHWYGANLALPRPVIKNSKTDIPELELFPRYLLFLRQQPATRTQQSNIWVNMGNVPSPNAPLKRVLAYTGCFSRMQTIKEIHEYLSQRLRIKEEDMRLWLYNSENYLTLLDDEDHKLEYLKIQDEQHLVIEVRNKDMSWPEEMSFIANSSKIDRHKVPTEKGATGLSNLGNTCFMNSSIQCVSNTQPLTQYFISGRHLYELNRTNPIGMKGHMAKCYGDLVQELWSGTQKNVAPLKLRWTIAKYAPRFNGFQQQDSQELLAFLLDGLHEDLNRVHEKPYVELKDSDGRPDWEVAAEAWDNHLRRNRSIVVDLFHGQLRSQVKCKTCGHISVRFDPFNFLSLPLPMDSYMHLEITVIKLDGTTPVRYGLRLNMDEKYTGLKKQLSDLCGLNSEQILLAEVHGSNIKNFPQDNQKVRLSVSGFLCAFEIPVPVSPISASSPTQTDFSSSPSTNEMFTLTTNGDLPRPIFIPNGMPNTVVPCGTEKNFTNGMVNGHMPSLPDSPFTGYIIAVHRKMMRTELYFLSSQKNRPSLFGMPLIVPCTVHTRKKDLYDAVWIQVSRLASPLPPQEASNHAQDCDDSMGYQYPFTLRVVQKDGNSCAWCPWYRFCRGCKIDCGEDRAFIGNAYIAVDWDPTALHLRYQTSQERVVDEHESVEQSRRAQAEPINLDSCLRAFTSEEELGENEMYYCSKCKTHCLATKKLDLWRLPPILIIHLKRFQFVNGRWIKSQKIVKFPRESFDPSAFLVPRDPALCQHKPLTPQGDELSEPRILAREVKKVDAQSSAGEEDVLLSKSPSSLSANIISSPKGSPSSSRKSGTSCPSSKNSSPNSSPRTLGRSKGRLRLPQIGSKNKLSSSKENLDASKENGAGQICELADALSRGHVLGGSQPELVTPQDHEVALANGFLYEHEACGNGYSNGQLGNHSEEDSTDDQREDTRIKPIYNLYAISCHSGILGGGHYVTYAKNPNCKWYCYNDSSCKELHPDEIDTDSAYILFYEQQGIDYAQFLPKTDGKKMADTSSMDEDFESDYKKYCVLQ
In this section, each of the molecules is paired with its reported log10(IC50).
Measurement name: log10(IC50) (log10 of the value in µM)

{"Compound string": "COc1ccccc1-c1cc(C(=O)N[C@@H]2CCN(C#N)C2)n[nH]1", "log10(IC50)": -1.14}
{"Compound string": "N#CN1CC[C@@H](NC(=O)c2cc(-c3cccc(Cl)c3)no2)C1", "log10(IC50)": -0.28}
{"Compound string": "N#CN1CC[C@@H](NC(=O)c2ccc(N3CCCC3)cc2F)C1", "log10(IC50)": 1.77}
{"Compound string": "N#CN1CC[C@H](C(=O)Nc2ncc(N3CCOCC3)s2)C1", "log10(IC50)": 2.38}
{"Compound string": "N#CN1CC[C@@H](NC(=O)c2ccc(F)c(F)c2)C1", "log10(IC50)": 2.26}

###

Biological target: USP30 (Homo sapiens, UniProt Q70CQ3)
Sequence (Q70CQ3 57-517): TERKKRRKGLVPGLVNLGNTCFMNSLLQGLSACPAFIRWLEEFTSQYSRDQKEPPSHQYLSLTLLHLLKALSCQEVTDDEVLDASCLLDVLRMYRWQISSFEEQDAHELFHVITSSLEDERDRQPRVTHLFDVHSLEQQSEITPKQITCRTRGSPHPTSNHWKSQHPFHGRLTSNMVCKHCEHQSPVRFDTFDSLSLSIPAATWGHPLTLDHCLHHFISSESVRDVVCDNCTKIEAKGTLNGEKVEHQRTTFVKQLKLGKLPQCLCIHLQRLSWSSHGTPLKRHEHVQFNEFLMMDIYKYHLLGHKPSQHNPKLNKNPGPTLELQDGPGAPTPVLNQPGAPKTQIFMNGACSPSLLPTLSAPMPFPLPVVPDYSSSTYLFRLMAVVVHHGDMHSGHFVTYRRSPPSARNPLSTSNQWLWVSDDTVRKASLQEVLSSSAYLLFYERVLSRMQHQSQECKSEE
Assay: High-throughput screening, Ub-RhoMP, single dose 1.25 µM
Type: biochemical
Parameters: USP30 CD (57-517); purchased Ubiquigent 64-0057-050
Settings: individual amine building block (plate NCN-5)
Experimental: Since the in‐plate synthesis was conducted in 1536‐well Echo plates, the compounds could readily be transferred from these plates into 1536‐well assay plates using acoustic liquid dispensing (Figure 2a) and subjected to HTS. […] The percentage inhibition was calculated for each well using the […]

{"Compound": "N#CN1CC[C@H](CN)C1", "Tested on": "USP30 (Homo sapiens, UniProt Q70CQ3)", "BB %inhibition USP30 [%]": -5.7}
{"Compound": "N#CN1CCC2(CCNC2)C1 (stereo not shown)", "Tested on": "USP30 (Homo sapiens, UniProt Q70CQ3)", "BB %inhibition USP30 [%]": 3.9}
{"Compound": "N#CN1C[C@H]2C[C@@H](N)C[C@H]2C1", "Tested on": "USP30 (Homo sapiens, UniProt Q70CQ3)", "BB %inhibition USP30 [%]": -0.126}
{"Compound": "N#CN1C[C@@H]2C[C@H]1CN2", "Tested on": "USP30 (Homo sapiens, UniProt Q70CQ3)", "BB %inhibition USP30 [%]": -3.6}
{"Compound": "N#CN1C[C@H]2C[C@H](N)C[C@H]2C1", "Tested on": "USP30 (Homo sapiens, UniProt Q70CQ3)", "BB %inhibition USP30 [%]": -2.3}
{"Compound": "N#CN1C[C@@H](F)[C@@H](N)C1", "Tested on": "USP30 (Homo sapiens, UniProt Q70CQ3)", "BB %inhibition USP30 [%]": -2.2}
{"Compound": "N#CN1CCC(N)CC1", "Tested on": "USP30 (Homo sapiens, UniProt Q70CQ3)", "BB %inhibition USP30 [%]": 4.8}
